target: opioid receptor mu (Homo sapiens, UniProt P35372); construct: expressed in transfected cells; experiment: GTPγ[35S] binding assay, antagonism of endorphin; format: biochemical; conditions: read-out: Mu functional Ki (GTPγ[35S] binding)
Sequence (P35372 whole entry): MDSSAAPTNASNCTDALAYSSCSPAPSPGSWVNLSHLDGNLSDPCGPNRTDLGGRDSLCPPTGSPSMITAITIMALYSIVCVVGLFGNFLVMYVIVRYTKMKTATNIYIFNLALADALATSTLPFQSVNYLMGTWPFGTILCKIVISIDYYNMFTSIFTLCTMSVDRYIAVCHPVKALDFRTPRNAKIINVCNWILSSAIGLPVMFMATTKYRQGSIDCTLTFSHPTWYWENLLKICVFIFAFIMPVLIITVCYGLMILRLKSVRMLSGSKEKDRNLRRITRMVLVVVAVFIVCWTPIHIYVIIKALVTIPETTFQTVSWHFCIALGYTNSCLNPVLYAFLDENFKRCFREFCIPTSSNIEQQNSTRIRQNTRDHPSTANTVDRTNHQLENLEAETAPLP
pKi: −log10 of the molar value.
property_label: pKi

- CC(C)CCNCc1ccc(-c2ccc(C(N)=O)cc2Cl)c(F)c1 [4B-61]: 7.59
- Cc1cc(C(N)=O)ccc1-c1ccc(CN[C@@H](C)c2ccccc2)cc1 [4B-42]: 7.18
- CC(C)CCNCc1ccc(-c2cccc(-c3nnc[nH]3)c2)c(F)c1.Cl [E7-02, hydrochloride salt]: 8.48
- CC(C)CCNCc1ccc(-c2ccc(C(N)=O)cc2Cl)cc1F [4B-64]: 7.92
- COc1cc(-c2ccc(C(N)=O)cc2C)ccc1CNC1Cc2ccccc2C1 [4B-89]: 10.57

---

This listing pairs compounds with measured pKi.
molecular target: opioid receptor mu (Homo sapiens); construct: expressed in transfected cells; assay: GTPγ[35S] binding assay, antagonism of endorphin; format: biochemical; conditions: average Ki; antagonism of endorphin (1 μM) at mu opioid receptor membranes; read-out: Mu functional Ki (GTPγ[35S] binding)
pKi: −log10 of the molar value.
property_label: pKi

• CCOCCNCc1ccc(-c2cccc(C(N)=O)c2)c(Cl)c1 = 7.89
• Cc1cc(C(N)=O)ccc1-c1cc(F)c(CNCCC2CCOCC2)c(F)c1 = 8.84
• Cc1cc(C(N)=O)ccc1-c1cc(F)c(CNC2Cc3ccccc3C2)cc1F = 10.16
• NC(=O)c1ccc(-c2ccc(CNC3Cc4ccccc4C3)cc2Cl)c(Cl)c1 = 9.62
• CC1(C)OCC(CNCc2ccc(-c3ccc(C(N)=O)cc3Cl)c(Cl)c2)O1 (centres unmarked) = 6.64
• Cc1cc(CNCCC(C)C)ccc1-c1cccc(-c2ncn[nH]2)c1 = 9.30
• CC(C)CCNCc1cc(F)c(-c2cccc(-c3ncn[nH]3)c2)c(F)c1 = 8.69
• Cc1cc(C(N)=O)ccc1-c1c(C)cc(CNCC2CCCO2)cc1Cl (centres unmarked) = 8.65
• Cc1cc(C(N)=O)cnc1-c1ccc(CNCCC(C)C)cc1 = 7.98
• Cn1c(=O)n(C)c2cc(CNCc3ccc(-c4cccc(C(N)=O)c4)c(Cl)c3)ccc21 = 7.82
• COCCNCc1ccc(-c2cccc(C(N)=O)c2)c(Cl)c1 = 7.11
• CC(C)CCNCc1ccc(-c2ncc(C(N)=O)cc2Cl)cc1 = 7.55
• CC(C)CCNCc1ccc(-c2cc(-c3ncn[nH]3)ccc2F)cc1 = 8.80
• CC(C)CCNCc1ccc(-c2cccc(-c3ncn[nH]3)c2)c(Cl)c1 = 9.79

---

This listing pairs compounds with measured pKi.
target: opioid receptor delta (Homo sapiens, UniProt P41143); construct: expressed in transfected cells; test: GTPγ[35S] binding assay, antagonism of BW-373U86; assay type: biochemical; conditions: average Ki; antagonism of BW-373U86 (1 nM) stimulated GTPγ[35S] binding, delta opioid receptor membranes; read-out: Delta functional (GTPγ[35S] binding Ki)
Sequence (P41143 whole entry): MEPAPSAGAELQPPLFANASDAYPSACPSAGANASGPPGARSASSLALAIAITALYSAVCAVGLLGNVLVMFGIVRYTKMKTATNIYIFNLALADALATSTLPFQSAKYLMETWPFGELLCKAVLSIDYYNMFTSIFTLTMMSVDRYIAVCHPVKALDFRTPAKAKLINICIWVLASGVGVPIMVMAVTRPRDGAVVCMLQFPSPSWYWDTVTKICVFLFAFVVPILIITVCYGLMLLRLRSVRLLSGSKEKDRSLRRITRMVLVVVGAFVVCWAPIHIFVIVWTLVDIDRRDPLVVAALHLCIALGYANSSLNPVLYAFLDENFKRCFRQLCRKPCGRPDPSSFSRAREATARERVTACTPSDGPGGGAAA
pKi: −log10 of the molar value.
property_label: pKi

- Cc1cc(C(N)=O)ccc1-c1ccc(CNC2Cc3ccccc3C2)cc1.Cl [4B-04]: 9.73
- CC1(C)OCC(CNCc2ccc(-c3cccc(C(N)=O)c3)c(Cl)c2)O1 (centres unmarked) [4A-10]: 6.45
- COCCNCc1c(F)cc(-c2ccc(C(N)=O)cc2C)cc1F [1B-09]: 7.96
- CC(C)CCNCc1cc(F)c(-c2cc(C(N)=O)ccc2F)cc1F [1A-09]: 7.78
- CC(C)CCNCc1cc(Cl)c(-c2cccc(C(N)=O)c2)c(Cl)c1 [1A-03]: 8.31

Sourced from patent US7615651B2
